The values you see were collected from patent US20250129103A1.

Measured IC50 accompanies every entry in the list below.
Experimental Target: KRAS G12C (GMPPNP-loaded) and cRAF (Ras-binding domain) interaction (Homo sapiens (Human), UniProt P01116, C118S/C51S/C80L/G12C)
Sequence (P01116 other isoform, or with tags, fused parts or gaps G12C/C51S/C80L/C118S): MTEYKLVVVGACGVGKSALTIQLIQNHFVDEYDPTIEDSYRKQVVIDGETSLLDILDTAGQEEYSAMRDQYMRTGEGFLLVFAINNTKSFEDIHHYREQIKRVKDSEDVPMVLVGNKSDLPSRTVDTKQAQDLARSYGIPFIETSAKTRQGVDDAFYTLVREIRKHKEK
Experimental Protocol: Inhibition of KRAS G12C and cRAF binding (AlphaScreen)
Test Context: KRAS G12C loaded with GMPPNP, cRaf RBD, 2 hours preincubation; read-out: Raf-1 RBD K-Ras IC50

# annotated cases, reported IC50 shown
>  <Compound>
CN1CC[C@@H]1/C=C/C(=O)N1CCN(c2nc(OC[C@@]34CCCN3C[C@H](F)C4)nc3c(F)c(-c4cccc(Cl)c4C(F)(F)F)ncc23)C[C@@H]1CC#N

>  <Result>
100 to 500 nM

$$$$
>  <Compound>
CC(C)c1noc(/C=C/C(=O)N2CCN(c3nc(OC[C@@]45CCCN4C[C@H](F)C5)nc4c(F)c(-c5cccc6cccc(Cl)c56)ncc34)C[C@@H]2CC#N)n1

>  <Result>
100 to 500 nM

$$$$
>  <Compound>
N#CC[C@H]1CN(c2nc(OC[C@@]34CCCN3C[C@H](F)C4)nc3c(F)c(-c4cccc5ccc(F)c(Cl)c45)ncc23)CCN1C(=O)/C=C/CN1CCS(=O)(=O)CC1

>  <Result>
100 to 500 nM

$$$$
>  <Compound>
N#CC[C@H]1CN(c2nc(OC[C@@]34CCCN3C[C@H](F)C4)nc3c(F)c(-c4cccc5cccc(Cl)c45)ncc23)CCN1C(=O)/C=C/CN1[C@@H]2CC[C@H]1COC2

>  <Result>
< 10 nM

$$$$
>  <Compound>
N#CC[C@H]1CN(c2nc(OC[C@@]34CCCN3C[C@H](F)C4)nc3c(F)c(-c4cccc5ccc(F)c(Cl)c45)ncc23)CCN1C(=O)/C=C/CN1CCC(F)(F)CC1

>  <Result>
< 10 nM

$$$$
>  <Compound>
N#CC[C@H]1CN(c2nc(OC[C@@]34CCCN3C[C@H](F)C4)nc3c2CCN(c2cccc4cccc(Cl)c24)C3)CCN1C(=O)/C=C/c1nc(C2COC2)no1

>  <Result>
< 10 nM

$$$$
>  <Compound>
N#CC[C@H]1CN(c2nc(OC[C@@]34CCCN3C[C@H](F)C4)nc3c(F)c(-c4cccc5ccc(F)c(Cl)c45)ncc23)CCN1C(=O)/C=C/CN1C[C@@H]2C[C@H]1CO2

>  <Result>
< 10 nM

$$$$
>  <Compound>
N#CC[C@H]1CN(c2nc(OC[C@@]34CCCN3C[C@H](F)C4)nc3c(F)c(-c4cccc5ccc(F)c(Cl)c45)ncc23)CCN1C(=O)/C=C/CN1CCCOCC1

>  <Result>
< 10 nM

$$$$
>  <Compound>
Cc1cc(N)nc(C2Cc3nc(OC[C@@]45CCCN4C[C@H](F)C5)nc(N4CCN(C(=O)/C=C/CN(C)C)[C@@H](CC#N)C4)c3CC2C)c1C(F)(F)F (stereo partly drawn)

>  <Result>
< 10 nM

$$$$
>  <Compound>
CN1CCN(C/C=C/C(=O)N2CCN(c3nc(OCC45CCCN4CCC5)nc4c3CCN(c3cccc5cccc(Cl)c35)C4)C[C@@H]2CC#N)CC1

>  <Result>
10 to 100 nM

$$$$

Measured IC50, N#CC[C@H]1CN(c2nc(OC[C@@]34CCCN3C[C@H](O)C4)nc3c(F)c(-c4cccc5ccc(F)c(Cl)c45)ncc23)CCN1C(=O)/C=C/CN1CCOCC1 : < 10 nM

The compound listed as Cc1noc(/C=C/C(=O)N2CCN(c3nc(OCC45CCCN4CCC5)nc4c3CCN(c3cccc5cccc(Cl)c35)C4)C[C@@H]2CC#N)n1 [Compound 28] has a reported IC50 of 100 to 500 nM

Value of measured IC50 for the entry CO[C@@H]1CCN(C/C=C/C(=O)N2CCN(c3nc(OC[C@@]45CCCN4C[C@H](F)C5)nc4c(F)c(-c5cccc(Cl)c5C5CC5)ncc34)C[C@@H]2CC#N)C1 : < 10 nM

Short answer for N#CC[C@H]1CN(c2nc(OCC34CCCN3CCC4)nc3c2CCN(c2cccc4cccc(Cl)c24)C3)CCN1C(=O)/C=C/CN1CCCOCC1 : IC50 was < 10 nM

COCCN(C)C/C=C/C(=O)N1CCN(c2nc(OC[C@@]34CCCN3C[C@H](F)C4)nc3c(F)c(-c4cccc5cccc(Cl)c45)ncc23)C[C@@H]1CC#N has a reported IC50 of < 10 nM

Lookup result for CO[C@H]1CCN(C/C=C/C(=O)N2CCN(c3nc(OC[C@@]45CCCN4C[C@H](F)C5)nc4c(F)c(-c5cccc6cccc(Cl)c56)ncc34)C[C@@H]2CC#N)C1 ; measured IC50: < 10 nM

# compound N#CC[C@H]1CN(c2nc(OCC34CCCN3CCC4)nc3c(F)c(-c4cccc5cccc(Cl)c45)ncc23)CCN1C(=O)/C=C/CN1C[C@H]2C[C@@H]1CO2 ; its IC50 = < 10 nM

GET /value?item= C[C@@H]1CN(C/C=C/C(=O)N2CCN(c3nc(OC[C@@]45CCCN4C[C@H](F)C5)nc4c(F)c(-c5cccc(Cl)c5C5CC5)ncc34)C[C@@H]2CC#N)C[C@H](C)O1 &field=IC50 returns 10 to 100 nM

Reported IC50 ( N#CC[C@H]1CN(c2nc(OC[C@@]34CCCN3C[C@H](F)C4)nc3c(F)c(-c4cccc(F)c4C4CC4)ncc23)CCN1C(=O)/C=C/CN1C2CCC1COC2 ) = < 10 nM

Quick note, IC50 for C[C@@H]1CN(C/C=C/C(=O)N2CCN(c3nc(OC[C@@]45CCCN4C[C@H](F)C5)nc4c(F)c(-c5cccc6ccc(F)c(F)c56)ncc34)C[C@@H]2CC#N)C[C@@H](C)O1 landed at 10 to 100 nM

So, N#CC[C@H]1CN(c2nc(OCC34CCCN3CCC4)nc3c2CCN(c2ccccc2C(F)F)C3)CCN1C(=O)/C=C/CN1CCOCC1 ? Its IC50 was > 500 nM

====

Experimental Protocol: Determination of logD (1-octanol / phosphate buffer pH 7.4)
Assay type: physicochemical
Test Context: 1-octanol/phosphate buffer, pH 7.4, pH 7.4, 1-octanol/phosphate buffer; read-out: Log D, pH 7.4
Quantity Measured: logD

>  <Compound>
CCO[C@@H]1CCN(C/C=C/C(=O)N2CCN(c3nc(OC[C@@]45CCCN4C[C@H](F)C5)nc4c(F)c(-c5cccc6cccc(Cl)c56)ncc34)C[C@@H]2CC#N)C1 [Compound 92]

>  <logD>
3.35

$$$$

a: N#CC[C@H]1CN(c2nc(OCC34CCCN3CCC4)nc3c(F)c(-c4cccc5cccc(Cl)c45)ncc23)CCN1C(=O)/C=C/c1nc(C2CC2)no1 [Compound 24]
b: N#CC[C@H]1CN(c2nc(OC[C@@]34CCCN3C[C@H](F)C4)nc3c(F)c(-c4cccc5ccc(F)c(F)c45)ncc23)CCN1C(=O)/C=C/CN1C[C@@H]2C[C@H]1CO2 [Compound 225]
Input line: Rank a against b by their logD values and give the higher one. Mark your selection by writing its label.
Output line: a
(a: 2.71, b: 1.87)

====

Experimental Target: KRAS G12C (GMPPNP-loaded) and cRAF (Ras-binding domain) interaction (Homo sapiens (Human), UniProt P01116, C118S/C51S/C80L/G12C)
Experimental Protocol: Inhibition of KRAS G12C and cRAF binding (AlphaScreen)
Test Context: KRAS G12C loaded with GMPPNP, cRaf RBD, 2 hours preincubation; read-out: Raf-1 RBD K-Ras IC50
Quantity Measured: IC50

>  <Structure Smiles String>
N#CC[C@H]1CN(c2nc(OCC34CCCN3CCC4)nc3c2CCN(c2cccc4cccc(Cl)c24)C3)CCN1C(=O)/C=C/CN1CC[C@@H](F)C1

>  <IC50>
< 10 nM

$$$$

Please fill in: IC50 reported for N#CC[C@H]1CN(c2nc(OC[C@@]34CCCN3C[C@H](F)C4)nc3c(F)c(-c4cccc5cccc(F)c45)ncc23)CCN1C(=O)/C=C/CN1CCOCC1 = 10 to 100 nM

The value of IC50 measured for the compound Cc1nccc(/C=C/C(=O)N2CCN(c3nc(OCC45CCCN4CCC5)nc4c(F)c(-c5cccc6cccc(Cl)c56)ncc34)C[C@@H]2CC#N)n1 turned out to be 10 to 100 nM

The value of IC50 measured for the compound Cc1cc(/C=C/C(=O)N2CCN(c3nc(OC[C@@]45CCCN4C[C@H](F)C5)nc4c(F)c(-c5cccc(Cl)c5C5CC5)ncc34)C[C@@H]2CC#N)nc(C)n1 turned out to be < 10 nM

====

Experimental Protocol: Determination of logD (1-octanol / phosphate buffer pH 7.4)
Type: physicochemical
Test Context: 1-octanol/phosphate buffer, pH 7.4, pH 7.4, 1-octanol/phosphate buffer; read-out: Log D, pH 7.4
Quantity Measured: logD

These solved cases illustrate the format of a correct answer.
>  <Molecule>
N#CC[C@H]1CN(c2nc(OC[C@@]34CCCN3C[C@H](F)C4)nc3c(F)c(-c4cccc(Cl)c4C4CC4)ncc23)CCN1C(=O)/C=C/[C@H]1CCN1C1CC1 [Compound 314]

>  <logD>
4.05

$$$$
>  <Molecule>
N#CC[C@H]1CN(c2nc(OC[C@@]34CCCN3C[C@H](F)C4)nc3c(F)c(-c4cccc5cccc(Cl)c45)ncc23)CCN1C(=O)/C=C/CN1CC2CC(C1)O2 [Example 86]

>  <logD>
2.9

$$$$
>  <Molecule>
N#CC[C@H]1CN(c2nc(OCC34CCCN3CCC4)nc3c2CCN(c2cccc4cccc(Cl)c24)C3)CCN1C(=O)/C=C/c1nc(C(F)F)no1 [Compound 19]

>  <logD>
3.33

$$$$
>  <Molecule>
N#CC[C@H]1CN(c2nc(OC[C@@]34CCCN3C[C@H](F)C4)nc3c(F)c(-c4cccc5cccc(Cl)c45)ncc23)CCN1C(=O)/C=C/CN1C[C@@H]2CC[C@H]1CO2 [Compound 259]

>  <logD>
2.92

$$$$

P: C[C@H]1CN(C/C=C/C(=O)N2CCN(c3nc(OC[C@@]45CCCN4C[C@H](F)C5)nc4c(F)c(-c5cccc6cccc(F)c56)ncc34)C[C@@H]2CC#N)C[C@H](C)O1 [Compound 235]
Q: Cc1nsc(/C=C/C(=O)N2CCN(c3nc(OC[C@@]45CCCN4C[C@H](F)C5)nc4c(F)c(-c5nc(N)cc(C)c5C(F)(F)F)ncc34)C[C@@H]2CC#N)n1 [Compound 142]
Input line: // select label with min value of measured logD from [ P , Q ] Pick one and reply with its label.
Output line: Q
